tgt: Histone deacetylase 1 (Homo sapiens)
assay_procedure: Inhibition of recombinant human HDAC1 using ZMAL (Z-(Ac)Lys-AMC as substrate incubated for 20 mins at 10 uM and measured by homogenous fluorescence assay relative to control
# key: entry, value: inhibition

- structure_string: "O=C(/C=C/C1CCN(Cc2ccc(-c3ccccc3)cc2)CC1)NO"
  inhibition / %: 56
- structure_string: "O=C(/C=C/C1CCN(Cc2ccccc2)CC1)NO"
  inhibition / %: 62
- structure_string: "O=C(NO)c1ccc(CNCc2cccs2)cc1"
  inhibition / %: 68

----------
tgt: Histone deacetylase 1 (Homo sapiens, UniProt Q13547)
Sequence (Q13547 whole entry): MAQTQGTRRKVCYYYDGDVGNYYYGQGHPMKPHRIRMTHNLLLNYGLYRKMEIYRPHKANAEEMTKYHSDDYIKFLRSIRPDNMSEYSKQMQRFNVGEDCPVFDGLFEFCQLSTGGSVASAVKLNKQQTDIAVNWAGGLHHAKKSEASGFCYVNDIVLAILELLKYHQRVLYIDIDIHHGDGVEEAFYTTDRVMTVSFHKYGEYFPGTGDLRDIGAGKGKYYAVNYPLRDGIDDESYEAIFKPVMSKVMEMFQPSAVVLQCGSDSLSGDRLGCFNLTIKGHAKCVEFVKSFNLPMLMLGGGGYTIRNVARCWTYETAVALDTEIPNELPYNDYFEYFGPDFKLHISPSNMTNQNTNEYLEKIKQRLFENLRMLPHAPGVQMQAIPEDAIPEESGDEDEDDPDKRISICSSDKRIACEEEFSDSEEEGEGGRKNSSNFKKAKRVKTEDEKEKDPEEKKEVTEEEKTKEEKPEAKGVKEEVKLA
assay_procedure: Inhibition of recombinant human HDAC1 using ZMAL (Z-(Ac)Lys-AMC as substrate incubated for 20 mins and measured by homogenous fluorescence assay
pIC50: −log10 of the molar value.
# key: entry, value: pIC50

- structure_string: "O=C(/C=C/C1CCN(Cc2cccc3ccccc23)CC1)NO"
  tgt: "Histone deacetylase 1 (Homo sapiens, UniProt Q13547)"
  pIC50: 5.52
- structure_string: "O=C(/C=C/C1CCN(CCc2ccccc2)CC1)NO"
  tgt: "Histone deacetylase 1 (Homo sapiens, UniProt Q13547)"
  pIC50: 4.80
- structure_string: "O=C(/C=C/C1CCN(Cc2ccc(Cl)cc2)CC1)NO"
  tgt: "Histone deacetylase 1 (Homo sapiens, UniProt Q13547)"
  pIC50: 5.05
